# systemTested: UniProt P23975
# Sequence (P23975 whole entry): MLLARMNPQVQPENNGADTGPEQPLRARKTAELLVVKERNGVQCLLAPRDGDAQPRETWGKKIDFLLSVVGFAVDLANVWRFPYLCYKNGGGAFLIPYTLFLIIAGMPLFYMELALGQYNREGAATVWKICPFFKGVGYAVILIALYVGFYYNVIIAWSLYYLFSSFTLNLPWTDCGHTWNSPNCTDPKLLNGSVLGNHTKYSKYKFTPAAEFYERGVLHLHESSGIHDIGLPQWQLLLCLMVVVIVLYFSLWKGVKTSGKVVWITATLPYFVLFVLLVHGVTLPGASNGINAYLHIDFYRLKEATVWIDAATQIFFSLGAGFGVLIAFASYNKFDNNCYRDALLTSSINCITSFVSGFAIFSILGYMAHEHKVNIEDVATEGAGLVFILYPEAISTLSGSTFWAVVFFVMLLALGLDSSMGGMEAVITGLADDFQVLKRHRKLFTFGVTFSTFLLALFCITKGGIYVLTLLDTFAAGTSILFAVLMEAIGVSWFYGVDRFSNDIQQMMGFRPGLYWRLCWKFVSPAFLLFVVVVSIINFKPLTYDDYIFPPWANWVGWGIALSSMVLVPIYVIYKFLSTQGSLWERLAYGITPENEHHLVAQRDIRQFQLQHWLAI
# protocolNotes: hNET uptake, Protocol B: cell based norepinephrine reuptake assay using recombinant hNET (MDCK-Net6 cells)
# cond: hNET Function IC50 (nM), protocol not stated
attributeMeasured: log10 IC50 (log10 of the value in nM)
The base-10 logarithm of IC50, taken with IC50 in nM, is what appears here.

Exercise: Request: log10 IC50, test system UniProt P23975, entry CNCCCN1c2ccccc2N(c2ccccc2C)S1(=O)=O [drawing 168]
Key: 0.85

Exercise: Another compound to check: CNCCCCN1c2ccccc2N(c2ccc(F)cc2F)S1(=O)=O
Key: 0.92

Exercise: And for CNCCCN1c2ccccc2N(c2ccccc2)S1(=O)=O [drawing 157] ?
Key: 0.41

Exercise: Would you mind doing CNCCCN1c2ccccc2N(c2ccc(F)c(F)c2)S1(=O)=O [drawing 163] as well?
Key: 1.30

Exercise: And CNCCCCN1c2ccccc2N(c2c(F)cccc2F)S1(=O)=O [drawing 162] ?
Key: 0.36

Exercise: Try this compound too: CCNCCCN1c2ccccc2N(c2ccccc2F)S1(=O)=O [drawing 170]
Key: 0.41
